# Tgt: NMDA-receptor subtype 2B (Rattus norvegicus, UniProt P35439+Q00960)
# Construct: Membranes were prepared by homogenization of the whole brain minus cerebellum and medulla oblongata
# Sequence (Q00960 27-1482, other chains not shown): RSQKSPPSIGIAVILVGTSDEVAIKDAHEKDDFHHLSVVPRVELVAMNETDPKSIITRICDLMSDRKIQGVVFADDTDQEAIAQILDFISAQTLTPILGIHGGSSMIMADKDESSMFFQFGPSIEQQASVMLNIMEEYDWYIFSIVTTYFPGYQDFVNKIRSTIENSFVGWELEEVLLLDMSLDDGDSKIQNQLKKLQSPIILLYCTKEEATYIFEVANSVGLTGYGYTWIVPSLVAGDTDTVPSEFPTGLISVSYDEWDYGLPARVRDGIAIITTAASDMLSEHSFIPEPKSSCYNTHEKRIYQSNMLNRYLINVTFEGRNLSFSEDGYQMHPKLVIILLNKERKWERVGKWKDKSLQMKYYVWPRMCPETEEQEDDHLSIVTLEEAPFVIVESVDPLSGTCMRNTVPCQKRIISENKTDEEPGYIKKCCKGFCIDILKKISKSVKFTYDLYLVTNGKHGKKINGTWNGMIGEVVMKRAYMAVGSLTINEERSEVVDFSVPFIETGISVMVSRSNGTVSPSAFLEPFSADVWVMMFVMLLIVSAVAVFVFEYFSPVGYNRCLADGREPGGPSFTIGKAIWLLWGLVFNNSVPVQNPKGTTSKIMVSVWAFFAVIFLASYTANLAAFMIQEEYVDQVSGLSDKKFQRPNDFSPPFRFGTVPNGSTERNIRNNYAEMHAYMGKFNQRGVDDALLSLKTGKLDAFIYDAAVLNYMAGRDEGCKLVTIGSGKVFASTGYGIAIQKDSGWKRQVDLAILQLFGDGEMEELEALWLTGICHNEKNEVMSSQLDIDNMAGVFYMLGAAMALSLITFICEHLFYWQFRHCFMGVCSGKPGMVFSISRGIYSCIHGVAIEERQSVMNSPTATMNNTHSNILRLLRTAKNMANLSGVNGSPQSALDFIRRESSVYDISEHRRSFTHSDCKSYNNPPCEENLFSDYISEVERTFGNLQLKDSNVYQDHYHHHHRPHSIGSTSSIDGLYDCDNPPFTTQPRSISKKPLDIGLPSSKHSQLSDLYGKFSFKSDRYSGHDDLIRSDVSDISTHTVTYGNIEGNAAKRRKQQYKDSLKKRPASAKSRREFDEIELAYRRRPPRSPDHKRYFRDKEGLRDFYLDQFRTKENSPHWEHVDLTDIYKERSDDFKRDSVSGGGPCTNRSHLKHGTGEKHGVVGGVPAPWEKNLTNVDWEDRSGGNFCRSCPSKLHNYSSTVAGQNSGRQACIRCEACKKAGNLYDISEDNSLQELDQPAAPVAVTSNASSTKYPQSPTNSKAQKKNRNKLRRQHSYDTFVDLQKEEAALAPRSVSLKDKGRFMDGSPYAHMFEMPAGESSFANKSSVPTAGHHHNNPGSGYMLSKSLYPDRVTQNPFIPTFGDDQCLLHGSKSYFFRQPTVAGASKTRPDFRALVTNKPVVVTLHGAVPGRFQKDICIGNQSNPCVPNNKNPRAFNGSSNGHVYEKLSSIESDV
# Assay details: 3H-Ro 25-6981 binding (displacement) on rat brain membranes
# Run conditions: displacement of 5 nM 3H-Ro 25-6981, rat whole brain membranes (minus cerebellum and medulla oblongata), 2 hours at 4° C.
# Procedure: ^3H[R-(R*,S*)]-(α-(4-Hydroxy-phenyl)-β-methyl-4-(phenyl-methyl)-1-piperidine propanol)binding Male Füllinsdorf albino rats weighing between 150-200 g were used. […] For displacement experiments 5 nM of ^3H-Ro 25-6981 were used and non specific binding was measured using 10 mM of tetrahydroisoquinoline and usually it accounts for 10% of the total. […] The effects of compounds were measured using a minimum of 8 concentrations and repeated at least once.
Measure: IC50

Example compounds with recorded IC50:
mol=Cc1nccn1Cc1cncc(-c2cccc(C(C)(F)F)c2)c1 obs_value="20 nM"
mol=CSc1cccc(-n2cnc(Cn3ccnc3)c2)c1 obs_value="38 nM"
mol=CCc1nccn1Cc1cn(-c2cccc(SC(F)(F)F)c2)cn1 obs_value="7.3 nM"

Below: the item to evaluate.
Query: Fetch value of IC50 on NMDA-receptor subtype 2B (Rattus norvegicus, UniProt P35439+Q00960) for `CC(C)c1nccn1Cc1cn(-c2ccc(Cl)c(Cl)c2)cn1.Cl.Cl` .
Reply: 17 nM

----------
melting point by entry:

compound=CC(C)c1cccc(-n2cnc(Cn3ccnc3)c2)c1.Cl.Cl measure="melting point" obs_value="200 to 206 °C"

Query: Give the value of melting point reported for the following: `Cl.Cl.Fc1ccc(-n2cnc(Cn3ccnc3)c2)cc1C(F)(F)F`
Reply: > 246 °C (dec.)

Query: Output measured melting point for this item: `CCc1nccn1Cc1cn(-c2ccc3c(c2)OC(F)(F)O3)cn1.Cl.Cl`
Reply: 237 to 239 °C (dec.)

Query: Please supply the value of reported melting point for the item `CCc1nccn1Cc1cn(-c2ccc(OC(F)(F)F)cc2)cn1.Cl.Cl`
Reply: 216 to 218 °C

----------
Counter-ions that a name gives are not always drawn.
Below, each entry is listed alongside its reported melting point.

// known answers, use as guide
compound=Cc1ccc(-n2cnc(Cn3ccnc3C)c2)cc1.Cl.Cl measure="melting point" obs_value="> 250 °C"
compound=CCc1nccn1Cc1cn(-c2ccc(Cl)c(OC)c2)cn1.Cl.Cl measure="melting point" obs_value="244 to 246 °C (dec.)"
compound=COc1cc(-n2cnc(Cn3ccnc3)c2)ccc1F.Cl.Cl measure="melting point" obs_value="174 to 178 °C"
compound="Cc1ccc(-n2cnc(Cn3ccnc3)c2)cc1Cl.Cl.Cl [Example 89]" measure="melting point" obs_value="218 to 220 °C"

Query: Return value of melting point for input c1ccc2nc(-n3cnc(Cn4ccnc4)c3)ccc2c1 (as salt: sodium) [Example 206] , no commentary.
Reply: > 150 °C (dec.)

Query: Provide melting point value for the following compound: Cc1cc(-n2cnc(Cn3ccnc3C)c2)ccc1Cl.Cl.Cl [Example 11]
Reply: 218 to 220 °C

Query: Report measured melting point; entry is `CCc1nccn1Cc1cn(-c2ccc(C)c(OC)c2)cn1.Cl.Cl`
Reply: > 250 °C

Query: For Cc1nccn1Cc1cn(-c2cc(F)cc(C(F)(F)F)c2)cn1.Cl.Cl [Example 178] , write its melting point.
Reply: > 250 °C

Query: Supply measured melting point of `COc1ccc(-n2cnc(Cn3ccnc3C)c2)cc1F.Cl.Cl` in your reply.
Reply: 238 to 240 °C

Query: Retrieve melting point measured for `CCc1nccn1Cc1cn(-c2ccc(C(F)(F)F)cc2)cn1.Cl.Cl` and print it.
Reply: 240 to 242 °C
